// reported Binding Signal for each item listed
Molecular target: T1, human TREM2 (human, UniProt Q9NZC2 19-174, limits assumed)
T1 construct: also called triggering receptor expressed on myeloid cells 2
T1 sequence: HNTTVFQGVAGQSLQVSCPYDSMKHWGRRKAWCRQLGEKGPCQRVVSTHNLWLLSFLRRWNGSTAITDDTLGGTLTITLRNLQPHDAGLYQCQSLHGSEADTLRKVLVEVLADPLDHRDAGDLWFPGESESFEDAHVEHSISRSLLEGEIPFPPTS
Assay: 1st screen, 10 nM Ab
PROPERTY MEASURED: Binding Signal

# BINDER, RESULT
records = [
    ("V86 (antibody, V domains shown, also called 6E7 variant V86) VH: EVQLVQSGAEVKKPGESLKISCKGSGYSFGSYWLAWVRQMPGKGLEWMGIIYPGDSDTRYSPSFEGQVTISADKSISTAYLQWSSLKASDTAMYFCARSRTFYYDSSDYFDYWGQGTLVTVSS VL: DIQMTQSPSSVSASVGDRVTITCRASQGISSWLAWYQQKPGKAPKLLIYAASSRQNGVPSRFSGSGSGTDFTLTISSLQPEDFATYFCQQADSFPRTFGQGTKLEIK", "4.8 fold over 6E7 parental antibody"),
    ("V27 (antibody, V domains shown, also called 6E7 variant V27; LV-103/HV-103) VH: EVQLVQSGAEVKKPGESLKISCKGSGYSFTSYWIAWVRQMPGKGLEWMGIIYPGDSDTRYAPSFQGQVTISADKSISTAYLQWSSLKASDTAMYFCVRSRTFYYDSSDYFDYWGQGTLVTVSS VL: DIQMTQSPSSVSASVGDRVTITCRASQGISSWLAWYQQKPGKAPKLLIYAASSLQRGVPSRFSGSGSGTDFTLTISSLQPEDFATYFCQQADSFPRTFGQGTKLEIK", "5.5 fold over 6E7 parental antibody"),
    ("V5 (antibody, V domains shown, also called 6E7 variant V5) VH: EVQLVQSGAEVKKPGESLKISCKGSGYSFTSYWIAWVRQMPGKGLEWMGTIYPGDSDTRYSPSFQGQVTISADKSISTAYLQWSSLKASDTAMYFCARQRTFYYDSSDYFDYWGQGTLVTVSS VL: DIQMTQSPSSVSASVGDRVTITCRASQGISSWLAWYQQKPGKAPKLLIYAASSLQNGVPSRFSGSGSGTDFTLTISSLQPEDFATYFCQQADSHPRTFGQGTKLEIK", "2.73 fold over 6E7 parental antibody"),
    ("V36 (antibody, V domains shown, also called 6E7 variant V36) VH: EVQLVQSGAEVKKPGESLKISCKGSGYSFTSYWLAWVRQMPGKGLEWMGIIYPGDSDTRYSPSFQGQVTISADKSISTAYLQWSSLKASDTAMYFCARSRTFYYDSSDYFDYWGQGTLVTVSS VL: DIQMTQSPSSVSASVGDRVTITCRASQGISSWLAWYQQKPGKAPKLLIYAASSRQNGVPSRFSGSGSGTDFTLTISSLQPEDFATYFCQQADSYPRTFGQGTKLEIK", "3.38 fold over 6E7 parental antibody"),
    ("V1 (antibody, V domains shown, also called 6E7 variant V1) VH: EVQLVQSGAEVKKPGESLKISCKGSGYSFTSSWIAWVRQMPGKGLEWMGIIYPGDSDTRYSPSFQGQVTISADKSISTAYLQWSSLKASDTAMYFCARSRTFYYDSSDYFDYWGQGTLVTVSS VL: DIQMTQSPSSVSASVGDRVTITCRASQGISSWLAWYQQKPGKAPKLLIYAASSLTNGVPSRFSGSGSGTDFTLTISSLQPEDFATYFCQQADSYPRTFGQGTKLEIK", "1.68 fold over 6E7 parental antibody"),
]
